All figures here come from paper PMC5515408.

target: MAX:MAX (p21) (human, UniProt P61244-2 1-151)
Sequence (P61244 other isoform, or with tags, fused parts or gaps): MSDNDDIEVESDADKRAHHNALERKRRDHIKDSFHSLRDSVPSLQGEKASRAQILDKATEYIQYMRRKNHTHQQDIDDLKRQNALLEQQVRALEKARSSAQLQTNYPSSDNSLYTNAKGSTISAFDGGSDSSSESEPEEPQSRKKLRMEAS
test_method_notes: protein-binding microarray (anti-MAX antibody); PBM: 15 mM Tris-HCl pH 7.5, 100 mM KCl, 0.075% NP40, 7.5 mM beta-mercaptoethanol, 375 ng/ul BSA, 8 ng/ul poly(dA-dT):(dA-dT), 550 ng complex, 60 min, room tempe; high values mean tight binding
recorded_conditions: protein: recombinant; tags: 6xHis; chain copies: 2; label: 3' end of printed strand (linker) attached to glass slide; dsDNA, one strand shown
In all, about 4,500 sequences were measured (“log2 normalized fluorescence”: median about -0.34, highest 2% from about 3.3 on). Only a selection was taken, and the highest values are over-represented in it overall.
endpoint: binding signal

Q. Given the sequence `CCGGCTGACACGTGCAATTAATAGCTAAGATTACTATATCGACG` , what is its reported binding signal?
A. 3.47 log2 normalized fluorescence

Q. How about `CCGGCTGACATCCCGTATTAATAGCTAAGATTACTATATCGACG` ?
A. 0.192 log2 normalized fluorescence

Q. How about `CCGGCTGCCACGTGGTGTTAATAGCTAAGATTACTATATCGACG` ?
A. 3.07 log2 normalized fluorescence

Q. How about `CCGGCTGAACAATCGTATTAATAGCTAAGATTACTATATCGACG` ?
A. -0.744 log2 normalized fluorescence

Q. How about `CCGGCTGTCACGTGGAATTAATAGCTAAGATTACTATATCGACG` ?
A. 3.19 log2 normalized fluorescence

Q. How about `CCGGCTGACACGTATCATTAATAGCTAAGATTACTATATCGACG` ?
A. 1.42 log2 normalized fluorescence

Q. How about `CCGGCTGAGGACTTGTATTAATAGCTAAGATTACTATATCGACG` ?
A. -0.44 log2 normalized fluorescence

Q. How about `CCGGCCGACACGTGGGCTTAATAGCTAAGATTACTATATCGACG` ?
A. 3.29 log2 normalized fluorescence

Q. How about `CCGGCTGCCACGTGCGATTAATAGCTAAGATTACTATATCGACG` ?
A. 3.47 log2 normalized fluorescence

Q. How about `CCGGCTGACACGTAACATTAATAGCTAAGATTACTATATCGACG` ?
A. 1.37 log2 normalized fluorescence

Q. How about `CCGGCCGCCACGTGGTATTAATAGCTAAGATTACTATATCGACG` ?
A. 3.32 log2 normalized fluorescence

Q. How about `CCGGCTGACCGCGCGTATTAATAGCTAAGATTACTATATCGACG` ?
A. 1.24 log2 normalized fluorescence

Q. How about `CCGGCTGCCACGCGGAATTAATAGCTAAGATTACTATATCGACG` ?
A. 3.15 log2 normalized fluorescence

Q. How about `CCGGCTGCCACGACGTATTAATAGCTAAGATTACTATATCGACG` ?
A. 1.79 log2 normalized fluorescence

Q. How about `CCGGCTGACCCATGGTATTAATAGCTAAGATTACTATATCGACG` ?
A. 2.08 log2 normalized fluorescence

Q. How about `CCGGCTGACGGGCGGTATTAATAGCTAAGATTACTATATCGACG` ?
A. -0.202 log2 normalized fluorescence

Q. How about `CCGGCCGCGACGTGGTATTAATAGCTAAGATTACTATATCGACG` ?
A. 2.79 log2 normalized fluorescence

Q. How about `CCGGCTGAATGTGGGTATTAATAGCTAAGATTACTATATCGACG` ?
A. 0.753 log2 normalized fluorescence

Q. How about `CCGGCTAACACGCGGTCTTAATAGCTAAGATTACTATATCGACG` ?
A. 3.15 log2 normalized fluorescence

Q. How about `CCGGCTGCCCCGTGGTATTAATAGCTAAGATTACTATATCGACG` ?
A. 2.88 log2 normalized fluorescence

Q. How about `CCGGCTGCCGCGTGGTATTAATAGCTAAGATTACTATATCGACG` ?
A. 3.21 log2 normalized fluorescence

Q. How about `CCGGCTGGCACGTGCTATTAATAGCTAAGATTACTATATCGACG` ?
A. 3.25 log2 normalized fluorescence

Q. How about `CCGGCTGCCACGTGGTATTAATAGCTAAGATTACTATATCGACG` ?
A. 3.42 log2 normalized fluorescence

Q. How about `CCGGCTGACGGTTCGTATTAATAGCTAAGATTACTATATCGACG` ?
A. -0.498 log2 normalized fluorescence

Q. How about `CCGGCTGGCACGTGGTATTAATAGCTAAGATTACTATATCGACG` ?
A. 3.26 log2 normalized fluorescence

Q. How about `CCGGCCGCCACGTGGTCTTAATAGCTAAGATTACTATATCGACG` ?
A. 3.44 log2 normalized fluorescence

Q. How about `CCGGCTGACACGTGGACTTAATAGCTAAGATTACTATATCGACG` ?
A. 3.07 log2 normalized fluorescence

Q. How about `CCGGCTGCGACGTGGTATTAATAGCTAAGATTACTATATCGACG` ?
A. 2.27 log2 normalized fluorescence

Q. How about `CCGGCTGAACCCTCGTATTAATAGCTAAGATTACTATATCGACG` ?
A. 0.0153 log2 normalized fluorescence

Q. How about `CCGGCTGACACGCGGTCTTAATAGCTAAGATTACTATATCGACG` ?
A. 3.32 log2 normalized fluorescence

Q. How about `CCGGCTGACACGTGCCGTTAATAGCTAAGATTACTATATCGACG` ?
A. 3.41 log2 normalized fluorescence

Q. How about `CCGGCTGACACGTGGGCTTAATAGCTAAGATTACTATATCGACG` ?
A. 3.35 log2 normalized fluorescence

Q. How about `CCGGCTGGCACGTGGTGTTAATAGCTAAGATTACTATATCGACG` ?
A. 3.4 log2 normalized fluorescence

Q. How about `CCGGCTGATCGTGTGTATTAATAGCTAAGATTACTATATCGACG` ?
A. 1.12 log2 normalized fluorescence

Q. How about `CCGGCTGAACTACCGTATTAATAGCTAAGATTACTATATCGACG` ?
A. -0.334 log2 normalized fluorescence

Q. How about `CCGGCTGAAGGCGCGTATTAATAGCTAAGATTACTATATCGACG` ?
A. -0.33 log2 normalized fluorescence

Q. How about `CCGGCTAACGCGTGGTATTAATAGCTAAGATTACTATATCGACG` ?
A. 3.26 log2 normalized fluorescence

Q. How about `CCGGCTGCCACGAGGAATTAATAGCTAAGATTACTATATCGACG` ?
A. 3.34 log2 normalized fluorescence

Q. How about `CCGGCTGCCACGTGGAATTAATAGCTAAGATTACTATATCGACG` ?
A. 3.31 log2 normalized fluorescence

Q. How about `CCGGCTGACCGTGTGTATTAATAGCTAAGATTACTATATCGACG` ?
A. 1.49 log2 normalized fluorescence
